Tested on: UO-31 renal
test.summary: NCI tumour cell line growth inhibition, 48 h
Each item that follows carries a reported TGI.

# example entries with known answers
COc1cccc(N=N/C(=N\NC(=O)c2ccc(C)cc2)c2ccc(N(CCC#N)CCC#N)cc2C)c1 = > 100 µM
O=P1(S)OC[C@H]2O[C@@H]3[C@H](F)[C@@H]2OP(O)(=S)OC[C@H]2O[C@H]([C@H](F)[C@@H]2O1)n1cnc2c(ncnc21)NC/C=C/CNc1ncnc2c1ncn23 (stereo partly specified) = > 100 µM

Q: Query the reported TGI for UO-31 renal; item: "C1=C2CCCC3=Cc4ccccc4OC23Oc2ccccc21"
A: > 100 µM

Q: Query the reported TGI for UO-31 renal; item: CCCCCCCCCCCCCCCCCCNc1nc(=O)n(C2CC(O)C(COP(=O)(O)O)O2)cc1F (stereo unspecified)
A: > 100 µM

Q: Query the reported TGI for UO-31 renal; item: "C=CCC1=C(C)C[C@@H]2CCC(=O)C=C12"
A: > 100 µM

Q: Query the reported TGI for UO-31 renal; item: "C=C(C)[C@H]1C2=CC(C)=C(O2)[C@@H](O[C@@H]2c3oc(cc3C)[C@H](C(=C)C)[C@H]3C=C(CC[C@H]2C(=C)C)C(=O)O3)[C@H](C(=C)C)CCC2=C[C@H]1OC2=O"
A: > 100 µM

Q: Query the reported TGI for UO-31 renal; item: "O=C(O)COc1cc(-c2ccccc2)nc2cc(F)ccc12"
A: > 100 µM

---

Test system: SW-620 colon
test.summary: NCI tumour cell line growth inhibition, 48 h
measured.quantity: TGI

COc1cccc(C=O)c1[O-].[O]=[U](=[O])([OH2+])[OH2+] = > 100 µM

Q: Value lookup for TGI; key = CC(C)(C)C(=CS(=O)/N=C/c1ccccc1)C(C)(C)C (configuration not stated)
A: > 100 µM

Q: Value lookup for TGI; key = CN(C)/N=N/c1nc2c(c(=O)n(C)c(=O)n2C)n1CC(O)CO (configuration not stated)
A: > 100 µM

Q: Value lookup for TGI; key = "NCc1cccc(O)c1O"
A: > 100 µM

Q: Value lookup for TGI; key = NNC(=O)C(=O)N/N=C1\CCC(=O)CC1C(=O)CCC(=O)Nc1ccc(Cl)cc1 (configuration not stated)
A: > 100 µM

Q: Value lookup for TGI; key = "C/C(=N\Nc1nc2cc(C(F)(F)F)ccc2s1)c1ccccn1"
A: 7.65 µM

---

System: SNB-19 CNS
test.summary: NCI tumour cell line growth inhibition, 48 h
measured.quantity: TGI (µM)
Value expressed in µM; do not type the unit.

# example entries with known answers
CC(C)(C)CC(C)(C)c1cc(O)c(O)c(CN2CCCCC2)c1 = 28.8
CC(C)(C)OC(=O)NCCCn1c2c(c3ccccc3c1=O)C(=O)c1ccccc1-2 = 29.6

Q: Query the reported TGI for SNB-19 CNS; item: CC(C)Cc1ccc(C(C)CC2=CCC(CN(C)C)C2=O)cc1 (centres undefined)
A: 29.5

Q: Query the reported TGI for SNB-19 CNS; item: "COc1ccc(-c2nc(-c3nc4ccc(F)cc4[nH]3)c3ccccn23)cc1"
A: 58.6

---

Tested on: SK-MEL-5 melanoma
test.summary: NCI tumour cell line growth inhibition, 48 h
measured.quantity: TGI (µM)
Value expressed in µM; do not type the unit.

# example entries with known answers
CCN=C1C=CC(=C(c2ccc(N(CC)CC)cc2)c2ccc(N(CC)CC)cc2)c2ccccc21 = 0.133
O=c1[nH]c2ccccc2n1CCCN1CCC(n2c(=O)[nH]c3cc(Cl)ccc32)CC1 = 29.1

Moving on to another compound below.
Q: Value lookup for TGI; key = "COc1ccc2cc(CNCCCCCCNCc3ccc4cc(OC)ccc4c3)ccc2c1"
A: 2.67

---

Tested on: CAKI-1 renal
test.summary: NCI tumour cell line growth inhibition, 48 h; in the data active = GI50 below about 0.43 µM; inactive = the rest
Would you mind answering with one of these outcomes? T for active, F for inactive

Illustrative cases are given below, each with its answer.
CCCCCC[C@H](C)Nc1nc2ccccc2c2occc12 = F
Cc1cc(O)c(C2=NN(c3ccc(S(N)(=O)=O)cc3)C(c3ccc(Cl)cc3)C2)c(C)c1Cl (stereo unspecified) = F
COc1cc(NC(=O)CCSc2nc3ccc(C)cc3c(=O)n2Cc2ccccc2)cc(OC)c1OC = F
O=C(c1ccccc1)c1c(NCC(O)CN2CCOCC2)n(Cc2ccccc2)c(=O)n(Cc2ccccc2)c1=O (stereo unspecified) = F
C=CC(=O)Nc1cc(N2CCN(CC)CC2)ccc1Nc1cc(N(C)C(=O)Nc2c(Cl)c(OC)cc(OC)c2Cl)ncn1 = F

For the next question, use this molecule.
Q: What is the recorded call for this molecule in the test? "CCN=C1C=CC(=C(c2ccc(N(CC)CC)cc2)c2ccc(N(CC)CC)cc2)c2ccccc21"
A: T

---

Test system: MOLT-4 leukemia
test.summary: NCI tumour cell line growth inhibition, 48 h
Where a SMILES comes first, the peptide text is derived from it. [ ]: non-standard residue; d: D form. The star is where a group is joined. Bn2Val = CC(C)[C@@H](C(=O)*)N(Cc1ccccc1)Cc1ccccc1; NH(4-Cl-benzyl) = Clc1ccc(CN*)cc1; NMeV = CN[C@H](C(=O)O)C(C)C; dNMeA = CN[C@H](C)C(=O)O
Each item that follows carries a reported TGI.

Cc1ccccc1N=C(N)Nc1ccccc1C = > 100 µM

Q: Value lookup for TGI; key = NCC(O)CSCc1ccc(Cl)cc1 (stereo not drawn)
A: > 100 µM

Q: Value lookup for TGI; key = COc1cc2c(cc1O)CC1c3c(cc(O)c(OC)c3-2)CCN1C (stereo not drawn)
A: > 100 µM

Q: Value lookup for TGI; key = "Cc1ccc(S(=O)(=O)c2ccccc2[N+](=O)[O-])cc1"
A: > 100 µM

Q: Value lookup for TGI; key = CC(C)CCCC(C)[C@H]1CCC2[C@@H]3CCC4Nc5c(cnn5-c5ccccc5)C[C@]4(C)C3CC[C@@]21C (stereo partly drawn)
A: > 100 µM

Q: Value lookup for TGI; key = CC(C)[C@H](NC(=O)[C@H](C(C)C)N(Cc1ccccc1)Cc1ccccc1)C(=O)N(C)[C@H](C(=O)N1CCC[C@H]1C(=O)N(C)[C@H](C)C(=O)NCc1ccc(Cl)cc1)C(C)C (Bn2Val-V[NMeV]P[dNMeA]-{NH(4-Cl-benzyl)})
A: > 100 µM

Q: Value lookup for TGI; key = "NCc1cccc(O)c1O"
A: > 100 µM

Q: Value lookup for TGI; key = "C=C(C)[C@H]1C2=CC(C)=C(O2)[C@@H](O[C@@H]2c3oc(cc3C)[C@H](C(=C)C)[C@H]3C=C(CC[C@H]2C(=C)C)C(=O)O3)[C@H](C(=C)C)CCC2=C[C@H]1OC2=O"
A: > 100 µM

---

Test system: MCF7 breast
test.summary: NCI tumour cell line growth inhibition, 48 h
measured.quantity: TGI

# example entries with known answers
CN1C(=O)C(O)C[C@@H]1c1ccccc1 (stereo not given in full) = > 100 µM
CN(C)CCn1c(CO)nc2c1c(=O)n(C)c(=O)n2C = > 100 µM
CC(C)=CCNc1nc(Cl)nc2nc[nH]c12 = > 100 µM
CN(C)Cc1cc(C(=O)/C=C/c2ccccc2)cc(CN(C)C)c1O = > 100 µM

Moving on to another molecule below.
Q: Value lookup for TGI; key = "C/C(=N\NC(=S)N(C)C)c1cccnn1"
A: > 45 µM

---

Each item that follows carries a reported TGI.
System: HCT-15 colon
test.summary: NCI tumour cell line growth inhibition, 48 h

Cc1cc(N(CCC#N)CCC#N)ccc1N=Nc1ccc(Br)cc1 = > 100 µM
COc1ncnc(S(=O)(=O)c2ccc(N=C3C(=O)N(CN4CCN(c5cc6c(cc5F)c(=O)c(C(=O)O)cn6C5CC5)CC4)c4ccc(Cl)cc43)cc2)c1OC = > 50 µM

Moving on to another compound below.
Q: Value lookup for TGI; key = "CC(=O)Nc1ccc(OC/C(N)=N/NC(=O)c2ccncc2)cc1"
A: > 100 µM

---

System: DU-145 prostate
test.summary: NCI tumour cell line growth inhibition, 48 h
measured.quantity: log10 TGI (log10 of the value in µM)
# log10 transformed; quantity=TGI; unit=µM

# example entries with known answers
CC(=O)NC1C(OCc2ccccc2)OC(CO)C(O)C1OC(C)C(=O)NC(C(=O)NC(CCC(=O)NCCCCNc1c2ccccc2nc2cccc([N+](=O)[O-])c12)C(N)=O)C(C)C (stereo unspecified) = 1.29
O=C1c2c(O)cccc2-c2nn(CCNCCO)c3ccc(NCCNCCO)c1c23 = -1.15
COc1ccc2cc(CNCCCCCCNCc3ccc4cc(OC)ccc4c3)ccc2c1 = 0.48
CCCCCC[C@H](C)Nc1nc2ccccc2c2occc12 = 1.15
C#Cc1nc2ccccc2c(=O)[nH]1 = 0.92

Q: Value lookup for log10 TGI; key = "C=C=C(CC(CC(=C)Br)(C(=O)OC)C(=O)OC)S(=O)(=O)c1ccccc1"
A: 0.53

Q: Value lookup for log10 TGI; key = "Cc1c2c(c(C)c3c4c(oc13)CCCC4)C=NCC2"
A: 1.45

Q: Value lookup for log10 TGI; key = COc1ccc(C(SC2C(O)C(CO)OC2n2ccc(=O)[nH]c2=O)(c2ccccc2)c2ccc(OC)cc2)cc1 (stereo unspecified)
A: 1.54

Q: Value lookup for log10 TGI; key = "COc1ccc(Nc2ccc3ccccc3c2-c2c(O)ccc3ccccc23)cc1"
A: 1.53
